- Tested on: HCT-15 colon
- methodDescription: NCI tumour cell line growth inhibition, 48 h
TGI: recorded values

INSERT INTO assay_data (molecule, attributemeasured, observed) VALUES
  ('N=C(N)SCCc1ccccn1', 'TGI', '> 100 µM'),
  ('COc1ccc(C[C@@H]2OC3(C=CC(=O)C=C3)O[C@H]2Cc2ccc(OC)cc2)cc1', 'TGI', '0.77 µM'),
  ('C=CCN1CCC2(CC1)NC(=O)c1ccccc1O2', 'TGI', '> 100 µM'),
  ('O=C(Nc1ccc(I)cc1F)c1cc(I)ccc1O', 'TGI', '19.7 µM'),
  ('O=C(CC(=O)c1ccccc1)c1ccccc1', 'TGI', '6.82 µM'),
  ('COC(=O)[C@H](CCSC)NC(=O)c1ccc(CNC(=O)/C(C)=C/c2ccccc2)cc1', 'TGI', '> 100 µM');

Q: Param item = `CCCCCCCCCCCCCCCCP(=O)([O-])OCC[N+](C)(C)C` ; retrieve measured TGI.
Ans: 16.7 µM

Q: Note, next up: `C#CCN(C)C(=O)N(CC#C)N=O`
Ans: > 100 µM

Q: Okay, and `Cc1cc(C)c(N=Nc2c(O)c(S(=O)(=O)O)cc3cc(S(=O)(=O)O)ccc23)cc1C` ?
Ans: > 100 µM

* * *

- System: DU-145 prostate
- methodDescription: NCI tumour cell line growth inhibition, 48 h
Listing: TGI of selected compounds

Field: example entries. Status: answers known.
INSERT INTO results (molecule, attributemeasured, observed) VALUES
  ('CCOP(=O)(OCC)C(C)(C)OC(=O)NC#N', 'TGI', '> 100 µM'),
  ('COc1ccc(/C=N/N=C(\[O-])c2ccncc2)cc1F.COc1ccc(/C=N\N=C(/[O-])c2ccncc2)cc1F.[Cu+2]', 'TGI', '> 100 µM');

Please look at the following compound next.
Q: Report TGI for `O=C(NN=C1CCCCC1)NN=C1CCCCC1` tested on DU-145 prostate.
Ans: > 100 µM

* * *

Quick reference: TGI of the listed items.
- Test system: MCF7 breast
- methodDescription: NCI tumour cell line growth inhibition, 48 h
Supply the numeric figure in µM, leaving out any unit text.

The cases that follow already have their TGI on record.
INSERT INTO results (compound, valueunit, observed) VALUES
  ('ClCC#CCSc1ncnc2c1ncn2CC#CCCl', 'µM', 3.62),
  ('O=C(Nc1cc(-c2cccnc2)nc(NCCCN2CCOCC2)n1)c1cc(Br)cc(C(F)(F)F)c1', 'µM', 9.22);

Q: GET /values?readout=TGI&system=MCF7 breast&item= O=P1(c2ccccc2)C2=CCC=CC2C(c2ccccc2)N1Cc1ccccc1 (centres undefined)
Ans: 25.6

Q: Next compound up: `Cc1c(C(=O)O[C@H]2[C@@H]3[C@H](C)CC[C@H]3[C@]3(C)O[C@@]2(C2CCCCC2)C[C@H]3OC(=O)CO)ccc2ccccc12`
Ans: 15.9

* * *

- Tested on: IGROV1 ovarian
- methodDescription: NCI tumour cell line growth inhibition, 48 h
attributeMeasured: TGI

The following compounds have reported results that may help.
INSERT INTO assay_data (compound, observed) VALUES
  ('COc1ccccc1NCC(=O)Nn1c(C)nc2ccc(S(=O)(=O)Nc3ccccc3OC)cc2c1=O', '> 100 µM'),
  ('O=[N+]([O-])c1cc(Cl)ccc1S(=O)(=O)N1CCCc2cc(Cl)ccc21', '> 100 µM'),
  ('C=CCC(SC)C1=C(C)C(=O)c2ccccc21 (stereo unspecified)', '> 10 µM'),
  ('CN(CCO)/N=N/c1[nH]ncc1C(N)=O', '> 100 µM'),
  ('O=C(CC(=O)c1ccccc1)c1ccccc1', '> 100 µM');

// below: TGI requested for another compound
Q: Tell me reported TGI for `COC(=O)[C@H](CCSC)NC(=O)c1ccc(CNC(=O)/C(C)=C/c2ccccc2)cc1` , tested with IGROV1 ovarian.
Ans: > 100 µM

* * *

- System: HS 578T breast
- methodDescription: NCI tumour cell line growth inhibition, 48 h
attributeMeasured: TGI (µM)
Report as a plain number; the unit µM is understood.

INSERT INTO results (molecule, systemundertest, attributemeasured, observed) VALUES
  ('Cc1cc(S(=O)(=O)Nc2nc3cc(Cl)ccc3o2)c(SCc2ccccc2)cc1Cl', 'HS 578T breast', 'TGI', 44.3);

Kindly review the next compound as well.
Q: # input compound: `ClCC#CCSc1ncnc2c1ncn2CC#CCCl` ; wanted: its TGI
Ans: 9.8

* * *

- Tested on: OVCAR-5 ovarian
- methodDescription: NCI tumour cell line growth inhibition, 48 h
attributeMeasured: GI50

Observe how each entry below is paired with its result.
INSERT INTO measurements (molecule, systemundertest, observed) VALUES
  ('CCc1nc(-n2c(-c3ccccc3)nc3ccccc3c2=O)nc(N)c1-c1ccc(Cl)cc1', 'OVCAR-5 ovarian', '2.86 µM'),
  ('O=C1c2ccn(CCCCN3CCC(O)CC3)c2C(=O)c2c1c(O)c1ccccc1c2O', 'OVCAR-5 ovarian', '33.4 µM'),
  ('C1CC[N-]CC1.CC(=N\O)/C(C)=N/O.CC(=N\O)/C(C)=N/O.[CH2-]CCN1CCOCC1.[Co+2]', 'OVCAR-5 ovarian', '> 100 µM'),
  ('CCOC(=O)c1ccccc1-c1c2ccc(=[N+](C)C)cc-2oc2cc(N(C)C)ccc12', 'OVCAR-5 ovarian', '0.537 µM');

Q: Return GI50 measured with OVCAR-5 ovarian given this molecule: `COc1cc2c(cc1OC)-c1ncc3cc4c(cc3c1C2)OCO4`
Ans: 39.6 µM

Q: Same read-out for `COc1ccc(-c2c(N)n[nH]c2-c2cc(OC)c(OC)c(OC)c2)cc1` ?
Ans: 0.572 µM

* * *

- Test system: IGROV1 ovarian
- methodDescription: NCI tumour cell line growth inhibition, 48 h
TGI by entry:

The examples below pair each entry with its known result.
INSERT INTO assay_data (compound, attributemeasured, observed) VALUES
  ('COC[C@@H](Cc1ccc(OC)c(OC)c1)[C@@H](COC)Cc1ccc(OC)c(OC)c1', 'TGI', '> 100 µM'),
  ('CC(/C=N/NC1=NCCCN1)=N\NC1=NCCCN1', 'TGI', '> 100 µM'),
  ('NCP(=O)(O)OCC(=O)O', 'TGI', '> 100 µM'),
  ('O=C(c1ccccc1)C1C(C(=O)c2ccccc2)C(c2ccccc2)N(c2ccccc2)C1c1ccccc1 (configuration not stated)', 'TGI', '> 100 µM'),
  ('N#Cc1cccc(OCc2ccccc2COc2cccc(C#N)c2)c1', 'TGI', '> 100 µM');

Q: For COCCNC1CCC2(SCCS2)c2[nH]c3ccccc3c21 (configuration not stated) , what is its reported TGI?
Ans: > 100 µM

Q: # iterate: `Nc1ccc(-c2nc3ccccc3s2)cc1Br`
Ans: > 100 µM

Q: Next compound: `O=C(NN=C1CCCCC1)NN=C1CCCCC1`
Ans: > 100 µM

* * *

- Test system: SW-620 colon
- methodDescription: NCI tumour cell line growth inhibition, 48 h
List of GI50 values.

INSERT INTO measurements (molecule, systemundertest, attributemeasured, observed) VALUES
  ('Oc1c(CN2CCOCC2)cc(COCc2ccccc2)c2cccnc12', 'SW-620 colon', 'GI50', '3.61 µM');

Q: Give its GI50 value. Item: `CCOc1cc(C(C)(C)C)ccc1C1=N[C@@](C)(c2ccc(Cl)cc2)[C@@](C)(c2ccc(Cl)cc2)N1C(=O)N1CCN(CCS(C)(=O)=O)CC1`
Ans: 5.03 µM

Q: Would you mind doing `CC[C@H](NC(=O)[C@H](CS(=O)(=O)CC1CC1)N[C@@H](c1ccc(F)cc1)C(F)(F)F)C(=O)C(=O)NC1CC1` as well?
Ans: > 100 µM

* * *

- Tested on: 786-0 renal
- methodDescription: NCI tumour cell line growth inhibition, 48 h
# Lookup of reported TGI keyed by entry

Examples from the recorded data:
INSERT INTO measurements (compound, observed) VALUES
  ('O=S(=O)(O)ONC1=NCCN1', '> 100 µM'),
  ('C=CC1(c2ccc(OC)cc2)OCCCO1', '> 100 µM'),
  ('C#CCN(C)C(=O)N(CC#C)N=O', '> 100 µM'),
  ('OC(CN1CCCCC1)c1ccc(/C=C/c2ccc(Cl)cc2)cc1 (configuration not stated)', '> 100 µM'),
  ('CC(=O)N1CCN(CCOc2ccc(C3CCN(C4=Nn5c(nnc5C(F)(F)F)CC4)CC3)cc2)CC1', '> 100 µM');

Q: Any idea what its TGI is? The compound is `COc1cccc(C2=C(c3cn(C)c4cccc(OC)c34)C(=O)NC2=O)c1`
Ans: > 25 µM

Q: Similarly, CC(=O)N(CN1C(=O)CCC1C(=O)O)c1ccccc1Cl (configuration not stated) ?
Ans: > 100 µM

Q: Okay, and `Cc1ccc2c(=O)c(-c3n[nH]c(=S)s3)c[nH]c2n1` ?
Ans: > 100 µM

Q: Likewise for `COc1ccc2nc3cccc(C(=O)NCCN(C)C)c3nc2c1` ?
Ans: > 22.2 µM

Q: Would you mind doing `COc1ccccc1NCC(=O)Nn1c(C)nc2ccc(S(=O)(=O)Nc3ccccc3OC)cc2c1=O` as well?
Ans: > 100 µM

Q: Please give the result for `CC(=O)O[C@H]1C=CC23OC(=O)[C@]1(C)[C@H]2[C@H](C(=O)O)C12CC(=O)[C@@](CO)(CC[C@H]13)C2` too.
Ans: > 100 µM

Q: Again, but for `CCOC(=O)NC(=O)c1c[nH]c(=O)[nH]c1=O`
Ans: > 100 µM
